These measurements were taken from ChEMBL document CHEMBL3351795.

- procedure details: AUC (0 to 24 hrs) in 129SvEv mouse model of CaCl2-induced abdominal aortic aneurysm at 10 mg/kg dosed through oral gavage BID for 4 weeks with first dose given one day prior to surgery
- Format: ADME, organism-based, Abdomen
- Parameters: time < 24 hr, dose 10 mg/kg, route oral
- measurement conditions: in vivo
value kind: AUC(0-t) at 24 h (ng·h/mL)

> print(dat)
                           molecular.string  quantitative.readout
1  CNC(=O)O[C@H]1COc2ccc(N3CCN(C4COC4)CC3)cc2[C@@H]1NC(=O)c1ccc(F)cc1                  5880
